Procedure Text: Furathiocarb biotransformation kinetics in individual human hepatic microsomes (10 donors)
Assay type: in vitro ADME
Condition Info: human, pH 7.4, HLM28; read-out: Km, sum of furathiocarb oxidation pathways
Method: The incubation mixture (ﬁnal volume of 200 µl of 0.1 M phosphate buffer) contained 50 and 100 µM furathiocarb, 0.15 mg pooled liver microsomal protein (n = 10), and 1 mM NADPH. The reaction was initiated by NADPH after a 2 min pre-incubation at + 37 °C and was incubated for 30 min at + 37 °C. The reaction stopped with ice-cold acetonitrile containing an internal standard. Enzyme kinetic parameters of both the microsomal samples and rCYP enzymes were measured. […]
Test Readout: Km (mM)
Numeric answer only, unit mM assumed.

Any idea what its Km is? The molecule is CCCCOC(=O)N(C)SN(C)C(=O)Oc1cccc2c1OC(C)(C)C2 [furathiocarb, Furathiocarb]
1.71
